src = patent US20170184612A1

Give IFNg Total SFC for every item shown.
Test system: peripheral blood mononuclear cells (PBMC), T cells
test: ELISpot assay, gamma-interferon release (SFC) after stimulation with a-synuclein epitope pools
Assay type: cell-based, human
recorded.conditions: Patients Summary; PD patients; single peptide
The answer is to be given in SFC; state only the numeric part.

Ask: I have this substance here, 3521.0005 (AVVTGVTAV; listed as Homo sapiens) , and I need its recorded IFNg Total SFC.
Result: 0

Ask: Then 3521.0069 (GVAEAAGKTK; listed as Homo sapiens) ?
Result: 53

Ask: Then 3521.004 (DNEAYEMPSE; listed as Homo sapiens) ?
Result: 0

Ask: Then 3521.0068 (GVAEAPGKTK; listed as Homo sapiens) ?
Result: 0

Ask: Then 3521.0064 (GVVHGVATV; listed as Homo sapiens) ?
Result: 0

Ask: Then 3521.0002 (PSEEGYQDY; listed as Homo sapiens) ?
Result: 0

Ask: Then 3521.0054 (MPVDPDNEAY; listed as Homo sapiens) ?
Result: 0

Ask: Then 3521.0049 (APQEGILEDM; listed as Homo sapiens) ?
Result: 0

Ask: Then 3521.0053 (KAKEGVVAAA; listed as Homo sapiens) ?
Result: 0

Ask: Then 3521.0043 (VFMKGLSKAK; listed as Homo sapiens) ?
Result: 0

---

Test system: peripheral blood mononuclear cells (PBMC), T cells
test: ELISpot assay, IL-5 release (SFC) after stimulation with a-synuclein epitope pools
Format: cell-based, human
recorded.conditions: single peptide; second 'Pool Stimulated' section (from r296), 12 donors tested
Binary call on IL-g Avg SFC with cut-off 80 SFC: strictly below means YES, and equality or higher means NO.

Ask: Lab log: compare recorded IL-g Avg SFC with 80 SFC; is it strictly lower for 3521.0061 (AATGFVKKDQ; listed as Homo sapiens) ?
Result: NO

Ask: Then 3521.0043 (VFMKGLSKAK; listed as Homo sapiens) ?
Result: NO

Ask: Then 3521.0079 (KGVVHGVATVAEKTK; listed as Homo sapiens) ?
Result: NO

Ask: Then 3521.0056 (YEMPSEEGYQ; listed as Homo sapiens) ?
Result: NO

Ask: Then 3521.0076 (PGKTKEGVLYVGSKT; listed as Homo sapiens) ?
Result: NO

Ask: Then 3521.0054 (MPVDPDNEAY; listed as Homo sapiens) ?
Result: YES

Ask: Then 3521.0058 (SEEGYQDYEP; listed as Homo sapiens) ?
Result: YES

Ask: Then 3521.0035 (SIAAATGFVK; listed as Homo sapiens) ?
Result: NO

Ask: Then 3521.0023 (YEMPSEEGY; listed as Homo sapiens) ?
Result: YES

Ask: Then 3521.0064 (GVVHGVATV; listed as Homo sapiens) ?
Result: YES

Ask: Then 3521.0055 (QEGILEDMPV; listed as Homo sapiens) ?
Result: YES

Ask: Then 3521.0026 (MPSEEGYQD; listed as Homo sapiens) ?
Result: YES

Ask: Then 3521.0024 (DPDNEAYEM; listed as Homo sapiens) ?
Result: NO

Ask: Then 3521.0075 (KQGVAEAPGKTKEGV; listed as Homo sapiens) ?
Result: NO

Ask: Then 3521.0077 (KTKEGVLYVGSKTKK; listed as Homo sapiens) ?
Result: NO

Ask: Then 3521.0051 (EEGAPQEGIL; listed as Homo sapiens) ?
Result: NO
